molecular target: delta opioid receptor (DOR) (Homo sapiens, UniProt P41143); assay: GTP-γ-S Binding Assay (SPA-based), antagonist mode vs DPDPE; type: biochemical; conditions: In vitro antagonism; agonist DPDPE 30 nM; Kb by Cheng-Prusoff equation
Sequence (P41143 whole entry): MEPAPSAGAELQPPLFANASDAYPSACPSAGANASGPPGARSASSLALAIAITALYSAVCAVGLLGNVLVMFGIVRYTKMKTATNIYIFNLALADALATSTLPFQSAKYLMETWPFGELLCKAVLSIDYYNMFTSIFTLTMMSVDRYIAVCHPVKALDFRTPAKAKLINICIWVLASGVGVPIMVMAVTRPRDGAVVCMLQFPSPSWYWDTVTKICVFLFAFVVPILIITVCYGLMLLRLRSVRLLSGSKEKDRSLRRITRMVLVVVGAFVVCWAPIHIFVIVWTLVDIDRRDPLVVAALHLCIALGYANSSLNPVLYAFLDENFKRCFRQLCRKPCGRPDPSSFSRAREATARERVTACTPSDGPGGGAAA
Listed compounds paired with reported Kb
Give the value, in units of µM, as a plain number.

Take a look at these entries with their results.
compound	Kb (µM)
NC(=O)c1ccc(OC2CCN(CCCc3ccccc3)CC2)cc1 [Example 10]	1.96
NC(=O)c1ccc(OC2CCC(NCCC3CCOCC3)CC2)nc1 (racemic) [Example 1]	0.819

# evaluate next
Q) Consider the compound shown here: CC(C)CCNC1CCC(Oc2ccc(C(N)=O)cn2)CC1 (racemic) [Example 2] What is its recorded Kb?
A) 0.996

Sourced from patent US7196100B2
